Origin of values: patent US5925769A

SYSTEM NAME: CO (Rattus norvegicus)
Construct: the supernatant was saved as the source of enzymes; endogenous in cells; host or cells: RBL-1 (rat basophilic leukemia) cells
Sequence (Q63921 27-602): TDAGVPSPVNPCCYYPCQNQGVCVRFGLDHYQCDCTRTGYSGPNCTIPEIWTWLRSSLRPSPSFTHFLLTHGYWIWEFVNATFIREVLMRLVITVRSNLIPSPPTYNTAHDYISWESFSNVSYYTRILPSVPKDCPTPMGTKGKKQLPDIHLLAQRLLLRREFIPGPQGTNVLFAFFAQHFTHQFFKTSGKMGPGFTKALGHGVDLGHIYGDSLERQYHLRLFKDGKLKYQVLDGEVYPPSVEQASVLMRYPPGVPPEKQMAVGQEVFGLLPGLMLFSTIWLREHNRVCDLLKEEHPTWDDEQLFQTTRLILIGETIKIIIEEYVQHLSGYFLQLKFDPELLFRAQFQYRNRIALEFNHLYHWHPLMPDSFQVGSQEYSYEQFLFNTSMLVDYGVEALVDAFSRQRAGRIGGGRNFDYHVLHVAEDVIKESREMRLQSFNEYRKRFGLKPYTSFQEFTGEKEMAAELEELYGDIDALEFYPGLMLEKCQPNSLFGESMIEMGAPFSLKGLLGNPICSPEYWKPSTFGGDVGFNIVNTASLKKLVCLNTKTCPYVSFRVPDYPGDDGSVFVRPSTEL
TEST SUMMARY: Procedure II: CO activity in broken RBL-1 cells (homogenate supernatant)
Type: biochemical
CONDITION: 20 min; @ 10 .quadrature.M; RBL-1 broken cell supernatant; read-out: Proc. II CO % inhibition
Mark class 0 for inhibition at 10 µM values under 60%, and class 1 for everything at or above.

As a guide, the following entries are already answered.
MOLECULE	CLASS LABEL
COc1ccc(-n2nc(C#CC(C)N(O)C(=O)N3CCOCC3)cc2-c2ccc(Cl)cc2)cc1 (stereo not drawn)	class 0
COc1ccc(-n2nc(C#CC(C)N(O)C(=O)C(C)C)cc2-c2ccc(Cl)cc2)cc1 (stereo not drawn)	class 1
COc1ccc(-n2nc(C#CC(C)N(O)C(=O)CCC(=O)O)cc2-c2ccc(Cl)cc2)cc1 (stereo not drawn)	class 0
CCOC(=O)CCC(=O)N(O)C(C)C#Cc1cc(-c2ccc(CC)cc2)n(-c2ccc(OC)cc2)n1 (stereo not drawn)	class 0
CCCNC(=O)N(O)C(C)C#Cc1cc(-c2ccc(Cl)cc2)n(-c2ccc(OC)cc2)n1 (stereo not drawn)	class 0

Reported inhibition at 10 µM reaches at least 60% for COc1ccc(-n2nc(C#CCN(O)C(=O)c3ccncc3)cc2-c2ccc(C)cc2)cc1 ?
class 1

====

Listed next: entries and their corresponding inhibition at 10 µM.
SYSTEM NAME: 5-LO (Rattus norvegicus)
Construct: the supernatant was saved as the source of enzymes; endogenous in cells; host or cells: RBL-1 (rat basophilic leukemia) cells
Sequence (P12527 whole entry): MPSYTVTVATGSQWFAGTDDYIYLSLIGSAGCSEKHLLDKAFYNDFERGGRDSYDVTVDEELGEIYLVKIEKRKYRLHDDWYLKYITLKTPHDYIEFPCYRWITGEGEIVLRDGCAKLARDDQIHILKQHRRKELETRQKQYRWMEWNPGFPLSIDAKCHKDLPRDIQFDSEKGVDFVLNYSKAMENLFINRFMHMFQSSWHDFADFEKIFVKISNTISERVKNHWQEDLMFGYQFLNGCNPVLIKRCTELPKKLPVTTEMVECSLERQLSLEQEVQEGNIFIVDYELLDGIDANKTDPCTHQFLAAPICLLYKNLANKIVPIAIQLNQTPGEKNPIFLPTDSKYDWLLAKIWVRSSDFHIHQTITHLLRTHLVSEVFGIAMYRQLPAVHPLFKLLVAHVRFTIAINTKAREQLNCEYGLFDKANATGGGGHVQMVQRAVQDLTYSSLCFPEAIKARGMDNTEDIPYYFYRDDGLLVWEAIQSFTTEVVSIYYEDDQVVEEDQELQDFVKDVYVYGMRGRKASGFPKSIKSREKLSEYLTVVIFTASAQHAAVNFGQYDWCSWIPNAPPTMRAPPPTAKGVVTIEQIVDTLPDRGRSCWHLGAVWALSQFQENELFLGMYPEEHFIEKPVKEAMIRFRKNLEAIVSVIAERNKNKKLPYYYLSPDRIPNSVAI
TEST SUMMARY: Procedure II: 5-LO activity (5-HETE) in broken RBL-1 cells (homogenate supernatant)
Assay type: biochemical
CONDITION: 20 min; @ 10 .quadrature.M; RBL-1 broken cell supernatant; read-out: Proc. II 5-LO % inhibition
The figure you give is taken to be in %; do not add the unit.

// worked examples, inhibition at 10 µM included
MOLECULE	SYSTEM NAME	inhibition at 10 µM (%)
COc1ccc(-n2nc(C#CCN(O)C(=O)c3ccncc3)cc2-c2ccc(C)cc2)cc1	5-LO (Rattus norvegicus)	89
COc1ccc(-n2nc(C#CC(C(C)C)N(O)C(N)=O)cc2-c2ccc(Cl)cc2)cc1 (centres unmarked)	5-LO (Rattus norvegicus)	90
CCc1ccc(-c2cc(C#CC(C)N(O)C(=O)CN3CCOCC3)nn2-c2ccc(OC)cc2)cc1 (centres unmarked)	5-LO (Rattus norvegicus)	93
COc1ccc(-n2nc(C#CCN(O)C(=O)c3ccccc3)cc2-c2ccc(C)cc2)cc1	5-LO (Rattus norvegicus)	100
CCc1ccc(-c2cc(C#CC(C)N(O)C(=O)CCl)nn2-c2ccc(OC)cc2)cc1 (centres unmarked)	5-LO (Rattus norvegicus)	100
COc1ccc(-n2nc(C#CC(C)N(O)C(=O)N3CCOCC3)cc2-c2ccc(Cl)cc2)cc1 (centres unmarked)	5-LO (Rattus norvegicus)	81
CCC(=O)N(O)CC#Cc1cc(-c2ccc(C)cc2)n(-c2ccc(OC)cc2)n1	5-LO (Rattus norvegicus)	100

Please look at the following molecule next.
Tell us which inhibition at 10 µM value is on record for COc1ccc(-n2nc(C#CC(C)N(O)C(=O)C(C)C)cc2-c2ccc(Cl)cc2)cc1 (centres unmarked)
100

====

SYSTEM NAME: CO (Rattus norvegicus)
Construct: the supernatant was saved as the source of enzymes; endogenous in cells; host or cells: RBL-1 (rat basophilic leukemia) cells
TEST SUMMARY: Procedure II: CO activity in broken RBL-1 cells (homogenate supernatant)
Type: biochemical
CONDITION: 20 min; @ 10 .quadrature.M; RBL-1 broken cell supernatant; read-out: Proc. II CO % inhibition
Mark 0.0 for inhibition at 10 µM values under 60%, and 1.0 for everything at or above.

MOLECULE	CLASS LABEL
CNC(=O)N(O)C(C)C#Cc1cc(-c2ccc(Cl)cc2)n(-c2ccc(OC)cc2)n1 (centres unmarked)	0.0
COC(=O)N(O)C(C)C#Cc1cc(-c2ccc(Cl)cc2)n(-c2ccc(OC)cc2)n1 (centres unmarked)	1.0
CCc1ccc(-c2cc(C#CC(C)N(O)C(=O)CN3CCOCC3)nn2-c2ccc(OC)cc2)cc1 (centres unmarked)	0.0
CCC(=O)N(O)CC#Cc1cc(-c2ccc(C)cc2)n(-c2ccc(OC)cc2)n1	1.0
CCc1ccc(-c2cc(C#CC(C)N(O)C(=O)OC)nn2-c2ccc(OC)cc2)cc1 (centres unmarked)	1.0

Reported inhibition at 10 µM reaches at least 60% for CCCCCCCC(=O)N(O)C(C)C#Cc1cc(-c2ccc(Cl)cc2)n(-c2ccc(OC)cc2)n1 (centres unmarked) ?
0.0

Reported inhibition at 10 µM reaches at least 60% for CCc1ccc(-c2cc(C#CC(C)N(O)C(=O)CN3CCN(C)CC3)nn2-c2ccc(OC)cc2)cc1 (centres unmarked) ?
0.0

Reported inhibition at 10 µM reaches at least 60% for CCC(=O)N(O)C(C)C#Cc1cc(-c2ccc(C)cc2)n(-c2ccc(OC)cc2)n1 (centres unmarked) ?
1.0

Reported inhibition at 10 µM reaches at least 60% for CCc1ccc(-c2cc(C#CC(C)N(O)C(=O)C(C)C)nn2-c2ccc(OC)cc2)cc1 (centres unmarked) ?
1.0

Reported inhibition at 10 µM reaches at least 60% for COc1ccc(-n2nc(C#CCN(O)C(C)=O)cc2-c2ccc(C)cc2)cc1 ?
1.0

Reported inhibition at 10 µM reaches at least 60% for CCOC(=O)CCC(=O)N(O)C(C)C#Cc1cc(-c2ccc(C)cc2)n(-c2ccc(OC)cc2)n1 (centres unmarked) ?
1.0

Reported inhibition at 10 µM reaches at least 60% for CCOC(=O)C(=O)N(O)C(C)C#Cc1cc(-c2ccc(C)cc2)n(-c2ccc(OC)cc2)n1 (centres unmarked) ?
0.0

Reported inhibition at 10 µM reaches at least 60% for COc1ccc(-n2nc(C#CC(C)N(O)C(=O)c3cccnc3)cc2-c2ccc(C)cc2)cc1 (centres unmarked) ?
0.0

Reported inhibition at 10 µM reaches at least 60% for COC(=O)N(O)CC#Cc1cc(-c2ccc(C)cc2)n(-c2ccc(OC)cc2)n1 ?
1.0

Reported inhibition at 10 µM reaches at least 60% for COc1ccc(-n2nc(C#CC(C)N(O)C(=O)CCl)cc2-c2ccc(C)cc2)cc1 (centres unmarked) ?
1.0

Reported inhibition at 10 µM reaches at least 60% for COc1ccc(-n2nc(C#CCN(O)C(N)=O)cc2-c2ccc(Cl)cc2)cc1 ?
0.0

====

SYSTEM NAME: Sheep seminal vesicle (SSV) cyclooxygenase (Ovis aries, UniProt P05979)
Construct: Sheep seminal vesicle (SSV) cyclooxygenase (95% pure); purchased Biomol (Plymouth Meeting, PA); host or cells: sheep seminal vesicle
Sequence (P05979 25-600): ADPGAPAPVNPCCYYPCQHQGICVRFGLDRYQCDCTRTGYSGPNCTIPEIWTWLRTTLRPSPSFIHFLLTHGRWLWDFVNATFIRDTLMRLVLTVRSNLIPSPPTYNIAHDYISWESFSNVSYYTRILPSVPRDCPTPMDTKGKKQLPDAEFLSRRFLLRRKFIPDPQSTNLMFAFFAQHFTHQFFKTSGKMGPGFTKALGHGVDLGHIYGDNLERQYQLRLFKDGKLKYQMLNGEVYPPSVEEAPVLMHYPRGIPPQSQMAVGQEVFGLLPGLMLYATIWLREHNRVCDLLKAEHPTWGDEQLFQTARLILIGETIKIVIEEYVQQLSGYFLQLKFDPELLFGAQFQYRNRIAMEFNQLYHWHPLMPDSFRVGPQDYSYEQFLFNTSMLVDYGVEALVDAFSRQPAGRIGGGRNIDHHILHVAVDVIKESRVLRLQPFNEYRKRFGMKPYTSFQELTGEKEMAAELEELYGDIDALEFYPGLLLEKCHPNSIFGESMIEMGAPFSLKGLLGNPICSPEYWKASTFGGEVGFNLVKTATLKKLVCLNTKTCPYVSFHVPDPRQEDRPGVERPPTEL
TEST SUMMARY: Procedure I: inhibition of sheep seminal vesicle (SSV) cyclooxygenase
Type: biochemical
CONDITION: 20 min; @ 10 .quadrature.M; SSV cyclooxygenase; read-out: Proc. I % inhibition
Protocol: Procedure I was used to determine the ability of the compounds to inhibit cyclooxygenase. […] The enzyme was divided into 200 μL aliquots, snap frozen with liquid N2, and stored at -70° C. until immediately prior to use. […] Radioactive cyclooxygenase products (prostaglandin D2, prostaglandin E2, etc.) were measured using a Bioscan System 200 Imaging Scanner. Inhibition of enzyme activity was calculated by comparing the areas under the curve produced in the presence or absence of test compound.
Listed next: entries and their corresponding inhibition at 10 µM.
The figure you give is taken to be in %; do not add the unit.

// worked examples, inhibition at 10 µM included
COMPOUND	inhibition at 10 µM (%)
COc1ccc(-n2nc(C#CC(C(C)C)N(O)C(N)=O)cc2-c2ccc(C)cc2)cc1 (centres unmarked)	29
CCCCCCCC(=O)N(O)C(C)C#Cc1cc(-c2ccc(Cl)cc2)n(-c2ccc(OC)cc2)n1 (centres unmarked)	31
CCc1ccc(-c2cc(C#CC(C)N(O)C(=O)OC)nn2-c2ccc(OC)cc2)cc1 (centres unmarked)	21
CCc1ccc(-c2cc(C#CC(C)N(O)C(=O)CCC(=O)O)nn2-c2ccc(OC)cc2)cc1 (centres unmarked)	0
CCC(=O)N(O)C(C)C#Cc1cc(-c2ccc(C)cc2)n(-c2ccc(OC)cc2)n1 (centres unmarked)	76
COc1ccc(-n2nc(C#CC(C)N(O)C(=O)CNCCCN(C)C)cc2-c2ccc(C)cc2)cc1 (centres unmarked)	0
CCc1ccc(-c2cc(C#CC(C)N(O)C(=O)CN3CCOCC3)nn2-c2ccc(OC)cc2)cc1 (centres unmarked)	0

Please look at the following compound next.
Fill in inhibition at 10 µM for COc1ccc(-n2nc(C#CCN(O)C(=O)c3ccncc3)cc2-c2ccc(C)cc2)cc1 tested with Sheep seminal vesicle (SSV) cyclooxygenase (Ovis aries, UniProt P05979).
17
